Reference for the values: paper PMC10958042

B1: ATGL (PNPLA2, patatin-like phospholipase domain-containing protein 2), human, full length / perilipin-1, mouse (mPlin1) (parent)
chain 1: MFPREKTWNISFAGCGFLGVYYVGVASCLREHAPFLVANATHIYGASAGALTATALVTGVCLGEAGAKFIEVSKEARKRFLGPLHPSFNLVKIIRSFLLKVLPADSHEHASGRLGISLTRVSDGENVIISHFNSKDELIQANVCSGFIPVYCGLIPPSLQGVRYVDGGISDNLPLYELKNTITVSPFSGESDICPQDSSTNIHELRVTNTSIQFNLRNLYRLSKALFPPEPLVLREMCKQGYRDGLRFLQRNGLLNRPNPLLALPPARPHGPEDKDQAVESAQAEDYSQLPGEDHILEHLPARLNEALLEACVEPTDLLTTLSNMLPVRLATAMMVPYTLPLESALSFTIRLLEWLPDVPEDIRWMKEQTGSICQYLVMRAKRKLGRHLPSRLPEQVELRRVQSLPSVPLSCAAYREALPGWMRNNLSLGDALAKWEECQRQLLLGLFCTNVAFPPEALRMRAPADPAPAPADPASPQHQLAGPAPLLSTPAPEARPVIGALGL
chain 2: MSMNKGPTLLDGDLPEQENVLQRVLQLPVVSGTCECFQKTYNSTKEAHPLVASVCNAYEKGVQGASNLAAWSMEPVVRRLSTQFTAANELACRGLDHLEEKIPALQYPPEKIASELKGTISTRLRSARNSISVPIASTSDKVLGATLAGCELALGMAKETAEYAANTRVGRLASGGADLALGSIEKVVEFLLPPDKESAPSSGRQRTQKAPKAKPSLVRRVSTLANTLSRHTMQTTAWALKQGHSLAMWIPGVAPLSSLAQWGASAAMQVVSRRQSEVRVPWLHNLAASQDESHDDQTDTEGEETDDEEEEEESEAEENVLREVTALPNPRGLLGGVVHTVQNTLRNTISAVTWAPAAVLGTVGRILHLTPAQAVSSTKGRAMSLSDALKGVTDNVVDTVVHYVPLPRLSLMEPESEFRDIDNPSAEAERKGSGARPASPESTPRPGQPRGSLRSVRGLSAPSCPGLDDKTEASARPGFLAMPREKPARRVSDSFFRPSVMEPILGRAQYSQLRKKS

- Variants of: B1
- Test Protocol: LUMIER: Protein A-ATGL variant and firefly luciferase-partner co-expressed in HEK293T, lysates immunoprecipitated on IgG-coated plates, co-precipitated partner measured as luciferase luminescence
- Applied Conditions: with perilipin-1, mouse (mPlin1), transient co-transfection, IgG-coated LUMITRAC plates, 2 h at 4 °C, three PBS washes, Bright-Glo luciferase reagent, triplicates per assay, two …, parent: -0.37, not graded, scale: log2 fold change of co-immunoprecipitated luminescence relative to wild-type ATGL within each experiment
Measurement Label: screen value

These solved cases illustrate the format of a correct answer.
Changes: chain 1 P156K
Value Reported: -0.726
//
Changes: chain 1 L62K
Value Reported: 0.284

I = chain 1 R95K
II = chain 1 R95L
Problem: Thinking about recorded screen value values, which is higher, I or II ? Return value: the label identifying the chosen record.
Result: II
